A compilation of Ki values for UniProt P00915 from the published literature.
Classify: met when Ki is strictly less than 4 µM; not met when Ki is not.

Dear reviewer, please state whether NS(=O)(=O)c1ccc(-n2ncc(Cl)c(Cl)c2=O)cc1 has Ki strictly beneath 4 µM. met

Next:
Dear reviewer, please state whether NS(=O)(=O)c1cc(C(=O)NCc2ccccc2)c(Cl)cc1SSc1cc(Cl)c(C(=O)NCc2ccccc2)cc1S(N)(=O)=O has Ki strictly beneath 4 µM. not met

Subsequent entry: CC(C)c1cc(-c2ccccc2)cc(C(C)C)[n+]1CC(=O)Nc1ccc(S(N)(=O)=O)cc1F met

Subsequent entry: Oc1c(Br)cc(Cc2c(Br)c(O)c(O)c(Br)c2Br)c(Br)c1O not met
